- method_description: Clinical study of the effect of food and antacid on pharmacokinetics after a single oral 40 mg tablet in healthy subjects
- Format: in vivo, human
- details: both sexes, human, plasma, po, 40 mg, 2 hours after food; single 40 mg oral tablet; mean; read-out: AUC(tf)
metric: AUC (ng·h/mL)
One number for each entry, in ng·h/mL.

Item "CCOC(=O)N[C@@H]1CC[C@@H]2[C@@H](C1)C[C@H]1C(=O)O[C@H](C)[C@H]1[C@H]2/C=C/c1ccc(-c2cccc(F)c2)cn1" has what recorded AUC?
22400

====

- method_description: Clinical study of the effect of food and antacid on pharmacokinetics after a single oral 40 mg tablet in healthy subjects
- Format: in vivo, human
- details: both sexes, human, plasma, po, 40 mg, 1 hour after food; single 40 mg oral tablet; mean; read-out: AUC(tf)
- Description: and or the bisulfate salt thereof in healthy subjects was studied in a clinical trial. The primary objective of the study was to evaluate the effect of food (standardized high-fat breakfast) and antacid (increased gastric pH) on the pharmacokinetics (PK) of and or the bisulfate salt thereof administered orally as a 40 mg tablet. A secondary objective was to evaluate the effect of meal timing relative to fasting on the PK of […]
metric: AUC
Give the value; after it, write the unit.

Item "CCOC(=O)N[C@@H]1CC[C@@H]2[C@@H](C1)C[C@H]1C(=O)O[C@H](C)[C@H]1[C@H]2/C=C/c1ccc(-c2cccc(F)c2)cn1" has what recorded AUC?
23200 ng·h/mL

====

- method_description: Clinical study of the effect of food and antacid on pharmacokinetics after a single oral 40 mg tablet in healthy subjects
- Assay type: in vivo, human
- details: both sexes, human, plasma, po, 40 mg, Fasted without antacid; single 40 mg oral tablet; healthy subjects; mean, n = 19
metric: half-life (h)
Numbers only, in h.

Item "CCOC(=O)N[C@@H]1CC[C@@H]2[C@@H](C1)C[C@H]1C(=O)O[C@H](C)[C@H]1[C@H]2/C=C/c1ccc(-c2cccc(F)c2)cn1" has what recorded half-life?
240

====

- method_description: Clinical study of the effect of food and antacid on pharmacokinetics after a single oral 40 mg tablet in healthy subjects
- Type: in vivo, human
- details: both sexes, human, plasma, po, 40 mg, Fed (immediately with food); single 40 mg oral tablet; mean, n = 18; read-out: AUC(I)
metric: AUC (µg·h/mL)
Answers are plain numbers, in µg·h/mL.

Item CCOC(=O)N[C@@H]1CC[C@@H]2[C@@H](C1)C[C@H]1C(=O)O[C@H](C)[C@H]1[C@H]2/C=C/c1ccc(-c2cccc(F)c2)cn1 [SCH 530348] has what recorded AUC?
26.6

====

- method_description: Clinical study of the effect of food and antacid on pharmacokinetics after a single oral 40 mg tablet in healthy subjects
- Type: in vivo, human
- details: both sexes, human, plasma, po, 40 mg, 1 hour after food (high-fat breakfast); single 40 mg oral tablet; mean
metric: Cmax (ng/mL)
One number for each entry, in ng/mL.

Item CCOC(=O)N[C@@H]1CC[C@@H]2[C@@H](C1)C[C@H]1C(=O)O[C@H](C)[C@H]1[C@H]2/C=C/c1ccc(-c2cccc(F)c2)cn1 [SCH 530348] has what recorded Cmax?
298

====

- method_description: Clinical study of the effect of food and antacid on pharmacokinetics after a single oral 40 mg tablet in healthy subjects
- Type: in vivo, human
- details: both sexes, human, plasma, po, 40 mg, Fasted with antacid; single 40 mg oral tablet; mean, n = 18; read-out: AUC(I)
metric: AUC
Give the value; after it, write the unit.

Item CCOC(=O)N[C@@H]1CC[C@@H]2[C@@H](C1)C[C@H]1C(=O)O[C@H](C)[C@H]1[C@H]2/C=C/c1ccc(-c2cccc(F)c2)cn1 [SCH 530348] has what recorded AUC?
15800 ng·h/mL
